biological target: PKC-θ KD (Homo sapiens, UniProt Q04759); construct: PKC-θ KD (amino acid residues 362 to 706) was cloned into a pET16b expression vector; hexa-histidine (C); Met-Gly (non-native N-terminal residues) (N); made in house; host or cells: E. coli BL21-DE3 (pET16b); assay: HPLC assay: thio effect with ATPγS and product inhibition with ADP; assay type: biochemical; conditions: product inhibition, varied substrate peptide1, ATP held at 0.1 mM, 100 mM NaCl; read-out: Kis
Sequence (Q04759 with tags, fused parts or gaps): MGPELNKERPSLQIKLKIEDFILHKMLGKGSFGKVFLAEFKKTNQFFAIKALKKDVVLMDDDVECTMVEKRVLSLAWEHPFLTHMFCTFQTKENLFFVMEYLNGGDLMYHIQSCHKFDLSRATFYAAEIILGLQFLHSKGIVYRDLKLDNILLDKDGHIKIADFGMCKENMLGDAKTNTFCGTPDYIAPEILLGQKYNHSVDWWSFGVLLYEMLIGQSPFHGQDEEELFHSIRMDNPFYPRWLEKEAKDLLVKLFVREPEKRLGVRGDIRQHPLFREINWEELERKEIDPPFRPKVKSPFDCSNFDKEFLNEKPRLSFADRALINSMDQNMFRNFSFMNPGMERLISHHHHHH
Measure Name: Ki
Param answer (str): number followed by unit.

Lookup result for "Nc1ncnc2c1ncn2[C@@H]1O[C@H](COP(=O)(O)OP(=O)(O)O)[C@@H](O)[C@H]1O" ; measured Ki: 494 µM

====

target: PKC-θ KD (Homo sapiens); construct: PKC-θ KD (amino acid residues 362 to 706) was cloned into a pET16b expression vector; hexa-histidine (C); Met-Gly (non-native N-terminal residues) (N); made in house; host or cells: E. coli BL21-DE3 (pET16b); assay: HPLC assay: thio effect with ATPγS and product inhibition with ADP; format: biochemical; conditions: product inhibition, varied substrate peptide1, ATP held at 0.1 mM, 100 mM NaCl; read-out: Kii
Measure Name: Ki (µM)
Provide only the numeric value, understood in µM.

Lookup result for Nc1ncnc2c1ncn2[C@@H]1O[C@H](COP(=O)(O)OP(=O)(O)O)[C@@H](O)[C@H]1O [ADP] ; measured Ki: 200
